EXPERIMENTAL_SYSTEM: DNA ligase (UniProt B1XA82)
Sequence (B1XA82 whole entry): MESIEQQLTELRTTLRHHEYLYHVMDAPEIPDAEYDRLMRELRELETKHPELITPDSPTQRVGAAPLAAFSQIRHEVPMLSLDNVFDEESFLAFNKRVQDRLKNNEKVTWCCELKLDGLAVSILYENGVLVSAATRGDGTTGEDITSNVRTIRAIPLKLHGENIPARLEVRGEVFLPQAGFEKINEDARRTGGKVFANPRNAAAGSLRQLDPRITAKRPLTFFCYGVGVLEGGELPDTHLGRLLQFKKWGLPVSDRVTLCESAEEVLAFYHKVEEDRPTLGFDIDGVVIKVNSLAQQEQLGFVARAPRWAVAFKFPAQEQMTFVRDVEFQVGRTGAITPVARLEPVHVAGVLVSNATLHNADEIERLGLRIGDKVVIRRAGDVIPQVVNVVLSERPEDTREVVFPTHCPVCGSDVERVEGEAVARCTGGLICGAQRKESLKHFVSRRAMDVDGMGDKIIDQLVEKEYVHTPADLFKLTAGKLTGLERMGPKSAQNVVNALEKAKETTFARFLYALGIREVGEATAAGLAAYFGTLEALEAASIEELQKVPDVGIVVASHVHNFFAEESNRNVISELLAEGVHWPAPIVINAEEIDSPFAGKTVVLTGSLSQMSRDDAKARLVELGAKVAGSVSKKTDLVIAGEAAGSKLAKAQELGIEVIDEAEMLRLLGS
ASSAY_PROCEDURE: relative enzymatic activity vs untreated control (fraction); higher = less inhibition
CONDITION: 100 µM; incubation time: 2 h at 37 C

COMPOUND: CC(O)C1C(=O)N2C(C(=O)O)=C(SC3CNC(C(=O)N(C)C)C3)C(C)C12 (centres undefined)
relative enzymatic activity: 1.45
//
COMPOUND: NCC[C@H](O)C(=O)N[C@@H]1C[C@H](N)[C@@H](O[C@H]2O[C@H](CN)[C@@H](O)[C@H](O)[C@H]2O)[C@H](O)[C@H]1O[C@H]1O[C@H](CO)[C@@H](O)[C@H](N)[C@H]1O
relative enzymatic activity: 0.871
//
COMPOUND: CN1CCN(c2c(F)cc3c(=O)c(C(=O)O)cn4c3c2OCN4C)CC1
relative enzymatic activity: 0.908
//
COMPOUND: CON=C(C(=O)NC1C(=O)N2C(C(=O)[O-])=C(CSc3nc(=O)c([O-])nn3C)CSC12)c1csc(N)n1.O.O.O.[Na+].[Na+] (centres undefined)
relative enzymatic activity: 1.29

====

EXPERIMENTAL_SYSTEM: Guanlyate kinase (UniProt Q0TBG1)
Sequence (Q0TBG1 whole entry): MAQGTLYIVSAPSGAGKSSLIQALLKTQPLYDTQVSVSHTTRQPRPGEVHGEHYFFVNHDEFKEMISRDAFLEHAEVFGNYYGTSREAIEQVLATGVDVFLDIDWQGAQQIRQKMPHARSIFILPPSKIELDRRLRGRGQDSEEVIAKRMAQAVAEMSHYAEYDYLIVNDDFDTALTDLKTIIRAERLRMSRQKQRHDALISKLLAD
ASSAY_PROCEDURE: relative enzymatic activity vs untreated control (fraction); higher = less inhibition
CONDITION: 100 µM; incubation time: 2 h at 37 C

MOLECULE: O=C(O)c1c(O)c2c([nH]c1=O)CCCC2
relative enzymatic activity: 0.874
--
MOLECULE: N[C@@H](C(=O)N[C@@H]1C(=O)N2C(C(=O)O)=C(Cl)CS[C@H]12)c1ccccc1
relative enzymatic activity: 0.87
--
MOLECULE: CCCCCCCCCCCCC[N+](C)(C)Cc1ccccc1
relative enzymatic activity: 0.396
--
MOLECULE: CC1(C)S[C@@H]2[C@H](NC(=O)[C@H](N)c3ccccc3)C(=O)N2[C@H]1C(=O)OCOC(=O)[C@@H]1N2C(=O)C[C@H]2S(=O)(=O)C1(C)C
relative enzymatic activity: 0.946
--
MOLECULE: CC1c2cccc(O)c2C(=O)C2=C(O)C3(O)C(=O)C(C(N)=O)=C(O)C(N(C)C)C3C(O)C21.Cl (centres undefined)
relative enzymatic activity: 1.12
--
MOLECULE: CCn1cc(C(=O)O)c(=O)c2cc(F)c(N3CCNCC3)cc21
relative enzymatic activity: 1.01
--
MOLECULE: COC1C=COC2(C)Oc3c(C)c(O)c4c(O)c(c(C=NN5CCN(C6CCCC6)CC5)c(O)c4c3C2=O)NC(=O)C(C)=CC=CC(C)C(O)C(C)C(O)C(C)C(OC(C)=O)C1C (centres undefined)
relative enzymatic activity: 0.435
--
MOLECULE: CC(C)(O/N=C(\C(=O)N[C@@H]1C(=O)N2C(C(=O)O)=C(C[n+]3ccccc3)CS[C@H]12)c1csc(N)n1)C(=O)O
relative enzymatic activity: 0.94
--
MOLECULE: Cn1nnnc1SCC1=C(C(=O)[O-])N2C(=O)C(NC(=O)C(O)c3ccccc3)C2SC1.[Na+] (centres undefined)
relative enzymatic activity: 0.942

====

EXPERIMENTAL_SYSTEM: DNA ligase (UniProt B1XA82)
ASSAY_PROCEDURE: relative enzymatic activity vs untreated control (fraction); higher = less inhibition
CONDITION: 100 µM; incubation time: 2 h at 37 C

MOLECULE: C/C(=C\C(=O)OCCCCCCCCC(=O)O)C[C@@H]1OC[C@H](C[C@@H]2O[C@H]2[C@@H](C)[C@H](C)O)[C@@H](O)[C@H]1O
relative enzymatic activity: 0.897

MOLECULE: Cc1cn(C2CC(N=[N+]=[N-])C(CO)O2)c(=O)[nH]c1=O (centres undefined)
relative enzymatic activity: 1.38

MOLECULE: CC[C@@H](C)CCCCC(=O)N[C@@H](CCN)C(=O)N[C@H](C(=O)N[C@@H](CCN)C(=O)N[C@H]1CCNC(=O)[C@H]([C@@H](C)O)NC(=O)[C@H](CCN)NC(=O)[C@H](CCN)NC(=O)[C@H](CC(C)C)NC(=O)[C@@H](Cc2ccccc2)NC(=O)[C@@H](CCN)NC1=O)[C@@H](C)O
relative enzymatic activity: 0.701

MOLECULE: Cl.NC1CCN(c2c(F)cc3c(=O)c(C(=O)O)cn(C4CC4)c3c2Cl)C1 (centres undefined)
relative enzymatic activity: 0.994

MOLECULE: CC[C@@H]1OC(=O)[C@H](C)[C@@H](O[C@H]2C[C@@](C)(OC)[C@@H](O)[C@H](C)O2)[C@H](C)[C@@H](O[C@@H]2O[C@H](C)C[C@H](N(C)C)[C@H]2O)[C@](C)(O)C[C@@H](C)/C(=N\OCOCCOC)[C@H](C)[C@@H](O)[C@]1(C)O
relative enzymatic activity: 0.803

MOLECULE: NC(=O)N/N=C/c1ccc([N+](=O)[O-])o1
relative enzymatic activity: 0.974

MOLECULE: CCC(C)C1NC(=O)C(CCNCS(=O)(=O)[O-])NC(=O)C(NC(=O)C(CCNCS(=O)(=O)[O-])NC(=O)C(NC(=O)C(CCNCS(=O)(=O)[O-])NC(=O)CCCCC(C)C)C(C)O)CCNC(=O)C(C(C)O)NC(=O)C(CCNCS(=O)(=O)[O-])NC(=O)C(CCNCS(=O)(=O)[O-])NC(=O)C(C(C)CC)NC1=O.[Na+].[Na+].[Na+].[Na+].[Na+] (centres undefined)
relative enzymatic activity: 1.08

MOLECULE: Nc1ncn(C2OC(CO)C(O)C2O)c(=O)n1 (centres undefined)
relative enzymatic activity: 1.32

MOLECULE: COc1ccc2c(c1OC)C(=O)OC2C1c2c(cc3c(c2OC)OCO3)CCN1C.Cl (centres undefined)
relative enzymatic activity: 1.11

MOLECULE: CC1CN(c2c(F)c(F)c3c(=O)c(C(=O)O)cn(C4CC4)c3c2F)CC(C)N1 (centres undefined)
relative enzymatic activity: 1.09

MOLECULE: CC(N)O.Cc1cc(CC(C)CC(C)(C)C)n(O)c(=O)c1 (centres undefined)
relative enzymatic activity: 1.17

MOLECULE: COC1C=COC2(C)Oc3c(C)c(O)c4c(O)c(c(C=NN5CCN(C)CC5)c(O)c4c3C2=O)NC(=O)C(C)=CC=CC(C)C(O)C(C)C(O)C(C)C(OC(C)=O)C1C (centres undefined)
relative enzymatic activity: 0.841

MOLECULE: Cc1nnc(SCC2=C(C(=O)O)N3C(=O)[C@@H](NC(=O)Cn4cnnn4)[C@H]3SC2)s1
relative enzymatic activity: 0.987

MOLECULE: NCC1OC(OC2C(N)CC(N)C(OC3OC(CO)C(O)C(N)C3O)C2O)C(N)CC1O (centres undefined)
relative enzymatic activity: 1.02

MOLECULE: Cc1ccc(S(=O)(=O)O)cc1.NC1CCN(c2nc3c(cc2F)c(=O)c(C(=O)O)cn3-c2ccc(F)cc2F)C1.O (centres undefined)
relative enzymatic activity: 1.02

MOLECULE: CC1COc2c(C3(N)CC3)c(F)cc3c(=O)c(C(=O)O)cn1c23.CS(=O)(=O)O (centres undefined)
relative enzymatic activity: 0.904

MOLECULE: CO/N=C(\C(=O)N[C@@H]1C(=O)N2C(C(=O)O)=C(C[N+]3(C)CCCC3)CS[C@H]12)c1csc(N)n1
relative enzymatic activity: 1.11

MOLECULE: CN(C)C1C(O)=C(C(N)=O)C(=O)C2(O)C(O)=C3C(=O)c4c(O)cccc4C(C)(O)C3CC12.Cl (centres undefined)
relative enzymatic activity: 1.03

MOLECULE: C=CC1=C(C(=O)O)N2C(=O)[C@@H](NC(=O)/C(=N\OCC(=O)O)c3csc(N)n3)[C@H]2SC1
relative enzymatic activity: 0.941

MOLECULE: Cc1cc(=O)c(C(=O)N[C@@H](C(=O)N[C@@H]2C(=O)N3C(C(=O)O)=C(CSc4nnnn4C)CS[C@H]23)c2ccc(O)cc2)c[nH]1
relative enzymatic activity: 0.862

MOLECULE: N[C@@H]1CC[C@@H](c2ccc(Cl)c(Cl)c2)c2ccccc21
relative enzymatic activity: 0.842

MOLECULE: Cc1cn([C@H]2C[C@H](N=[N+]=[N-])[C@@H](CO)O2)c(=O)[nH]c1=O
relative enzymatic activity: 0.932

MOLECULE: Cc1oc(=O)oc1CN1CCN(c2cc3c(cc2F)c(=O)c(C(=O)O)c2n3C(C)S2)CC1 (centres undefined)
relative enzymatic activity: 1.19

MOLECULE: COC(=O)N/N=C/c1c[n+]([O-])c2ccccc2[n+]1[O-]
relative enzymatic activity: 0.933

MOLECULE: COC1(NC(=O)C2SC(=C(C(N)=O)C(=O)O)S2)C(=O)N2C(C(=O)O)=C(CSc3nnnn3C)CSC21 (centres undefined)
relative enzymatic activity: 1.47

MOLECULE: CO[C@@]12[C@@H]3N[C@@H]3CN1C1=C(C(=O)C(N)=C(C)C1=O)[C@@H]2COC(N)=O
relative enzymatic activity: 0.844

MOLECULE: NCCC(O)C(=O)NC1CC(N)C(OC2OC(CN)C(O)C(O)C2O)C(O)C1OC1OC(CO)C(O)C(N)C1O.O (centres undefined)
relative enzymatic activity: 0.998

MOLECULE: CN(C)c1cc(CNCC(C)(C)C)c(O)c2c1C[C@H]1C[C@H]3[C@H](N(C)C)C(=O)[C@H](C(N)=O)C(=O)[C@@]3(O)C(=O)[C@@H]1C2=O
relative enzymatic activity: 0.862

MOLECULE: CN(C)c1ccc(O)c2c1C[C@@H]1C[C@@H]3[C@@H](N(C)C)C(=O)C(C(N)=O)=C(O)[C@]3(O)C(=O)[C@H]1C2=O
relative enzymatic activity: 0.699

Where do the numbers come from? From the supplement of paper PMC9446081.
